Source of measurements: paper PMC4336329

Could you please report measured hERG current change (%, negative = inhibition) at 10uM for the items listed next?
Molecular target: human ether-à-go-go-related gene (hERG) potassium channel (human);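 also: peak tail current of the secondary pulse compared with the same well before compound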
Sequence (Q12809 whole entry, looked up): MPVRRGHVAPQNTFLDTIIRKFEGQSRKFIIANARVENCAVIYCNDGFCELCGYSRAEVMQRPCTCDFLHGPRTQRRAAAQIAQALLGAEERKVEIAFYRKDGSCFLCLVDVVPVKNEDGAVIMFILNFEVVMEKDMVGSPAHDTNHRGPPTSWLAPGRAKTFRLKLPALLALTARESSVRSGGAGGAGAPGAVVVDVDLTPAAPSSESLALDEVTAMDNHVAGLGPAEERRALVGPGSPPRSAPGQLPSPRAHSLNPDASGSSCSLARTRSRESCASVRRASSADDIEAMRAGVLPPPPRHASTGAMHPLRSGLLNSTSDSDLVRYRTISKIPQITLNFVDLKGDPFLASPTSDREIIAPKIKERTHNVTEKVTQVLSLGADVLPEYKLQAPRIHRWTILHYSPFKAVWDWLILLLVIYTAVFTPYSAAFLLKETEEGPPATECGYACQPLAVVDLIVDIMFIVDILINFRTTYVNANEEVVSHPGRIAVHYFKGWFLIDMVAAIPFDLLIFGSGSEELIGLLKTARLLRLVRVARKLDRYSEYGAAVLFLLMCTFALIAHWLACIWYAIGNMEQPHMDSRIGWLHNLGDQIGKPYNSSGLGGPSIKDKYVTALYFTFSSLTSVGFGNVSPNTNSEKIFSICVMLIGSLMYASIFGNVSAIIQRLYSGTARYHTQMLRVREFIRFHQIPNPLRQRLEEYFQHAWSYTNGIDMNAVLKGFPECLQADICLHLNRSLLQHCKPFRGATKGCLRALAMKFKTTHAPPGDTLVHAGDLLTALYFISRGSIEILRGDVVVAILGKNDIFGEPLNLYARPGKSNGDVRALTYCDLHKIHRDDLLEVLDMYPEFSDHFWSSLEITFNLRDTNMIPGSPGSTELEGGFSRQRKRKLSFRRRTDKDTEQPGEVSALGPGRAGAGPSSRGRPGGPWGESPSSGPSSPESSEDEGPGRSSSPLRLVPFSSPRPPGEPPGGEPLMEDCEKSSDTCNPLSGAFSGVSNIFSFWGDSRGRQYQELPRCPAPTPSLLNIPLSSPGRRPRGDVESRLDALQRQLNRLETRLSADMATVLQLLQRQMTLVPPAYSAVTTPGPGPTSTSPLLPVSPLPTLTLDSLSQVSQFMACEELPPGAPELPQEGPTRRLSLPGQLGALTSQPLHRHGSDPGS
Assay: primary screen, population patch clamp on CHO cells stably expressing hERG; higher = less effect of the substance
Hit rate of the full screen: of about 310,000 compounds, about 14,000 (4.5%) showed an effect of 50% or more. Effects have a minus sign here. Only a selection was taken, and strong results are over-represented in it overall.
Write down the numeric answer in % and omit the unit.

## Input Could you please provide reported hERG current change (%, negative = inhibition) at 10uM for COC(=O)CN(c1ccc(Cl)cc1C)S(C)(=O)=O ? Thanks!
## Output 13.9

## Input Read off the recorded hERG current change (%, negative = inhibition) at 10uM for CS(=O)(=O)c1cccc(C(=O)N(CCc2ccccc2)Cc2cccs2)c1
## Output -48.6

## Input Respond only with hERG current change (%, negative = inhibition) at 10uM recorded for CN1C(CC(=O)c2ccccc2)CCCC1CC(O)c1ccccc1 (stereo not drawn)
## Output -82.4

## Input Name the recorded hERG current change (%, negative = inhibition) at 10uM of the molecule listed here: COc1ccccc1CNC(=O)CCCOc1cc(=O)n(C)c2ccccc12
## Output 4.57

## Input // fetch hERG current change (%, negative = inhibition) at 10uM given entry Cc1ccc(C)c(S(=O)(=O)N2CCN(CC(=O)NC(=O)NCc3ccco3)CC2)c1
## Output -24.5

## Input Please give measured hERG current change (%, negative = inhibition) at 10uM of the following entry: CCOc1ccc2[nH]c3nc(SCC(=O)NC4CCCC4)nnc3c2c1
## Output 14.1

## Input Quickly give me recorded hERG current change (%, negative = inhibition) at 10uM for COc1ccc(OC)c(C(O)c2coc3ccc(O)c(CN4CCOCC4)c23)c1 (stereo not drawn)
## Output -11.4

## Input Recall and state the measured hERG current change (%, negative = inhibition) at 10uM for O=C([C@H](O)c1ccccc1)N1CCC[C@H]1CO .
## Output 8.33

## Input Specify reported hERG current change (%, negative = inhibition) at 10uM for the molecule shown: O=C(CCCSc1nc2ccccc2[nH]1)Nc1ccccc1
## Output 7.05

## Input Specify measured hERG current change (%, negative = inhibition) at 10uM for O=C(NCCc1ccccc1)c1ccc2nc3cc(Cl)ccc3c(=O)n2c1 .
## Output 14.1

## Input Consider the molecule COc1ccc(-c2nc(CSCC(=O)NCc3ccc4c(c3)OCO4)c(C)o2)cc1 . State its measured hERG current change (%, negative = inhibition) at 10uM.
## Output -6.05

## Input Name the recorded hERG current change (%, negative = inhibition) at 10uM of the item CCn1c(C(=O)NCCCN2CCc3ccccc3C2)cc2sccc21 in your answer.
## Output -64

## Input Let me know recorded hERG current change (%, negative = inhibition) at 10uM for O=C(Oc1cccc(-c2cnc3ccccc3n2)c1)c1ccco1 , thanks.
## Output -5.02

## Input Consider the molecule COc1ccc(N2CCN(C(=O)CCCSc3nc4ccccc4[nH]3)CC2)cc1 and give its recorded hERG current change (%, negative = inhibition) at 10uM.
## Output -62.3

## Input Consider the molecule CSc1nnc(C)c(=O)n1COC(=O)c1ccc(S(=O)(=O)N2CCCC2)cc1 . State its measured hERG current change (%, negative = inhibition) at 10uM.
## Output -22.8

## Input Give the reported hERG current change (%, negative = inhibition) at 10uM for this molecule. COc1ccc(-c2cc3ccccc3[nH]2)cc1
## Output 7.8

## Input Report measured hERG current change (%, negative = inhibition) at 10uM; entry is CCOC(=O)c1c(-c2ccccc2)csc1NC(=O)CCN1CCOCC1.O=C(O)C(=O)O
## Output -33.2

## Input Supply measured hERG current change (%, negative = inhibition) at 10uM of N#Cc1cccc(C(=O)N(CCc2ccccc2)Cc2cccs2)c1 in your reply.
## Output -53.3

## Input Given Cl.O=C(c1cccs1)c1coc2ccc(O)c(CN(CCO)CCO)c12 , respond with its hERG current change (%, negative = inhibition) at 10uM.
## Output -41

## Input Respond only with hERG current change (%, negative = inhibition) at 10uM recorded for CC1=Nn2c(nnc2-c2n[nH]c3c2CCC3)SC1
## Output 8.18

## Input Return hERG current change (%, negative = inhibition) at 10uM (reported value) for this molecule: Cc1ccc(S(=O)(=O)Nc2cc(C)on2)cc1
## Output 15.4
